Test system: Ig-MXP3 cells
Measurement Protocol: Direct cytotoxicity (Toxic Dose 50) without chemotherapeutic
Assay type: cell-based
Condition Notes: Ig-MXP3 cells, inhibitor without chemotherapeutic
A collection of compounds and their measured TD50 ABCG2

{"Compound": "COc1ccccc1-c1cc(N2CCN(C(=O)c3ccoc3)CC2)n2nc(-c3ccccc3)cc2n1", "Unit String": "µM", "Result Operator": "=", "TD50 ABCG2": 7.62}
{"Compound": "O=C(c1ccoc1)N1CCN(c2cc(-c3ccncc3)nc3cc(-c4cccc(Cl)c4)nn23)CC1", "Unit String": "µM", "Result Operator": "=", "TD50 ABCG2": 57.80}
{"Compound": "CC(=O)N1CCN(c2cc(-c3ccco3)nc3cc(-c4ccccc4)nn23)CC1", "Unit String": "µM", "Result Operator": ">", "TD50 ABCG2": 100}
{"Compound": "COc1ccc(-c2cc3nc(-c4ccccc4)cc(N4CCN(C(=O)c5ccoc5)CC4)n3n2)cc1", "Unit String": "µM", "Result Operator": ">", "TD50 ABCG2": 100}
{"Compound": "O=C(c1ccncc1)N1CCN(c2cc(-c3ccccc3)nc3cc(-c4cccc(Cl)c4)nn23)CC1", "Unit String": "µM", "Result Operator": "=", "TD50 ABCG2": 28.30}
{"Compound": "COc1ccc2c3c([nH]c2c1)[C@H](CC(C)C)N1C(=O)[C@H](CCC(=O)OC(C)(C)C)NC(=O)[C@@H]1C3 [Compound 4, reference compound]", "Unit String": "µM", "Result Operator": "=", "TD50 ABCG2": 20.00}
{"Compound": "CC(=O)N1CCN(c2cc(-c3ccco3)nc3cc(-c4cccc(Cl)c4)nn23)CC1", "Unit String": "µM", "Result Operator": ">", "TD50 ABCG2": 100}
{"Compound": "COc1cccc(-c2cc3nc(C)c(C)c(N4CCN(Cc5ccoc5)CC4)n3n2)c1", "Unit String": "µM", "Result Operator": ">", "TD50 ABCG2": 100}
{"Compound": "Cc1nc2cc(-c3cccc(Cl)c3)nn2c(N2CCN(C(=O)c3ccco3)CC2)c1C", "Unit String": "µM", "Result Operator": "=", "TD50 ABCG2": 47.40}
{"Compound": "O=C(c1cccnc1)N1CCN(c2cc(-c3ccccc3)nc3cc(-c4cccc(Cl)c4)nn23)CC1", "Unit String": "µM", "Result Operator": "=", "TD50 ABCG2": 10.30}
{"Compound": "O=C(c1ccoc1)N1CCN(c2cc(-c3ccco3)nc3cc(-c4cccc(Cl)c4)nn23)CC1", "Unit String": "µM", "Result Operator": "=", "TD50 ABCG2": 10.80}

====

Test system: Jurkat-DNR cells
Measurement Protocol: Direct cytotoxicity (Toxic Dose 50) without chemotherapeutic
Condition Notes: Jurkat-DNR cells, inhibitor without chemotherapeutic
Quantity Name: TD50 ABCB1

{"Compound": "COc1cccc(-c2cc3nc(-c4ccco4)cc(N4CCN(C(C)=O)CC4)n3n2)c1", "Reported": "49.30 µM"}
{"Compound": "O=C(c1ccoc1)N1CCN(c2cc(-c3ccco3)nc3cc(-c4ccco4)nn23)CC1", "Reported": "1.93 µM"}
{"Compound": "Cc1nc2cc(-c3cccc(Cl)c3)nn2c(N2CCN(C(=O)c3ccco3)CC2)c1C", "Reported": ">100 µM"}
{"Compound": "O=C(c1ccoc1)N1CCN(c2cc(-c3ccoc3)nc3cc(-c4ccccc4)nn23)CC1", "Reported": "7.33 µM"}
{"Compound": "COc1cccc(C(=O)N2CCN(c3cc(-c4ccccc4)nc4cc(-c5cccc(Cl)c5)nn34)CC2)c1", "Reported": ">100 µM"}
{"Compound": "COc1ccccc1-c1cc2nc(-c3ccccc3)cc(N3CCN(C(=O)c4ccoc4)CC3)n2n1", "Reported": "4.37 µM"}
{"Compound": "O=C(c1ccoc1)N1CCN(c2cc(-c3ccncc3)nc3cc(-c4cccc(Cl)c4)nn23)CC1", "Reported": "13.50 µM"}
{"Compound": "COc1ccccc1-c1cc(N2CCN(C(=O)c3ccoc3)CC2)n2nc(-c3ccccc3)cc2n1", "Reported": "3.73 µM"}
{"Compound": "CN(C)C(=O)CCSC(SCCC(=O)O)c1cccc(/C=C/c2ccc3ccc(Cl)cc3n2)c1 (centres unmarked) [Compound 5, reference compound]", "Reported": "20.40 µM"}
{"Compound": "COc1ccc(-c2cc3nc(-c4ccco4)cc(N4CCN(C(=O)c5ccoc5)CC4)n3n2)cc1", "Reported": ">100 µM"}
{"Compound": "O=C(c1cccnc1)N1CCN(c2cc(-c3ccccc3)nc3cc(-c4cccc(Cl)c4)nn23)CC1", "Reported": "4.72 µM"}
{"Compound": "CC(=O)N1CCN(c2cc(-c3ccco3)nc3cc(-c4cccc(Cl)c4)nn23)CC1", "Reported": "17.60 µM"}
{"Compound": "COc1cccc(-c2cc3nc(C)c(C)c(N4CCN(Cc5ccoc5)CC4)n3n2)c1", "Reported": "> 100 µM"}
{"Compound": "O=C(c1ccncc1)N1CCN(c2cc(-c3ccccc3)nc3cc(-c4cccc(Cl)c4)nn23)CC1", "Reported": "10.90 µM"}

====

A collection of compounds and their measured pIC50
Assay Target: ABCG2 (Homo sapiens, UniProt Q9UNQ0)
Sequence (Q9UNQ0 whole entry): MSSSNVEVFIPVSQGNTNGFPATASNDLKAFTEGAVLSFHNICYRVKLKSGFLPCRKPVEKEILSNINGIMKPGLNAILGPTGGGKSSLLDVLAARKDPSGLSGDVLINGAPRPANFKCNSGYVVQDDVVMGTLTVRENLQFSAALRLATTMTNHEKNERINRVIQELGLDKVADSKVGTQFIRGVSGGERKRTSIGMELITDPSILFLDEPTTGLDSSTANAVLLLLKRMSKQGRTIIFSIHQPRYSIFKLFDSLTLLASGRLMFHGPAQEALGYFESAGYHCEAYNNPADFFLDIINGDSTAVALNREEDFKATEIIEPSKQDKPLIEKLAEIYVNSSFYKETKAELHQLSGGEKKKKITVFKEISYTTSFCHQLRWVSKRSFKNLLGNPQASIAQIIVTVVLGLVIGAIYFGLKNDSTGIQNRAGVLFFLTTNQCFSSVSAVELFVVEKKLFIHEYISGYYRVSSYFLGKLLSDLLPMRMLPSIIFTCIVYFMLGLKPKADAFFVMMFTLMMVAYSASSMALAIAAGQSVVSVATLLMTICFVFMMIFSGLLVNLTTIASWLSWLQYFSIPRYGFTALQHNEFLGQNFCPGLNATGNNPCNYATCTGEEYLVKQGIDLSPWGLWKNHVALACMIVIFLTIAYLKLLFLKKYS
Measurement Protocol: JC-1 efflux inhibition dose response, flow cytometry, Ig-MXP3 cells
pIC50: −log10 of the molar value.

{"Structure Notation": "O=C(c1ccsc1)N1CCN(c2cc(-c3ccccc3)nc3cc(-c4cccc(Cl)c4)nn23)CC1", "Assay Target": "ABCG2 (Homo sapiens, UniProt Q9UNQ0)", "Result Operator": "=", "pIC50": 5.85}
{"Structure Notation": "COc1cccc(-c2cc(N3CCN(C(=O)c4ccoc4)CC3)n3nc(-c4cccc(Cl)c4)cc3n2)c1", "Assay Target": "ABCG2 (Homo sapiens, UniProt Q9UNQ0)", "Result Operator": "=", "pIC50": 5.94}
{"Structure Notation": "CN(CCCN(C)c1cc(-c2ccco2)nc2cc(-c3ccccc3)nn12)C(=O)c1ccoc1", "Assay Target": "ABCG2 (Homo sapiens, UniProt Q9UNQ0)", "Result Operator": "=", "pIC50": 5.27}
{"Structure Notation": "O=S(=O)(c1ccccc1)N1CCN(c2cc(-c3ccccc3)nc3cc(-c4cccc(Cl)c4)nn23)CC1", "Assay Target": "ABCG2 (Homo sapiens, UniProt Q9UNQ0)", "Result Operator": "<", "pIC50": 4.30}
{"Structure Notation": "O=C(c1ccncc1)N1CCN(c2cc(-c3ccccc3)nc3cc(-c4cccc(Cl)c4)nn23)CC1", "Assay Target": "ABCG2 (Homo sapiens, UniProt Q9UNQ0)", "Result Operator": "=", "pIC50": 5.99}
{"Structure Notation": "O=C1CN(c2cc(-c3ccco3)nc3cc(-c4ccccc4)nn23)CCN1c1ccccc1", "Assay Target": "ABCG2 (Homo sapiens, UniProt Q9UNQ0)", "Result Operator": "=", "pIC50": 5.79}
{"Structure Notation": "CN(C)CCN(C)c1cc(-c2ccco2)nc2cc(-c3ccccc3)nn12", "Assay Target": "ABCG2 (Homo sapiens, UniProt Q9UNQ0)", "Result Operator": "=", "pIC50": 5.05}
{"Structure Notation": "O=C(c1ccoc1)N1CCN(c2cc(-c3ccco3)nc3cc(-c4ccccc4)nn23)CC1", "Assay Target": "ABCG2 (Homo sapiens, UniProt Q9UNQ0)", "Result Operator": "=", "pIC50": 6.89}
{"Structure Notation": "Cc1cc(N2CCN(C(=O)c3ccco3)CC2)n2nc(-c3cccc(Cl)c3)cc2n1", "Assay Target": "ABCG2 (Homo sapiens, UniProt Q9UNQ0)", "Result Operator": "=", "pIC50": 5.56}
{"Structure Notation": "O=C(c1ccccc1Cl)N1CCN(c2cc(-c3ccccc3)nc3cc(-c4cccc(Cl)c4)nn23)CC1", "Assay Target": "ABCG2 (Homo sapiens, UniProt Q9UNQ0)", "Result Operator": "=", "pIC50": 5.88}
{"Structure Notation": "CC(=O)N1CCN(c2cc(-c3ccco3)nc3cc(-c4ccccc4)nn23)CC1", "Assay Target": "ABCG2 (Homo sapiens, UniProt Q9UNQ0)", "Result Operator": "=", "pIC50": 6.28}
{"Structure Notation": "O=C(c1cccnc1)N1CCN(c2cc(-c3ccccc3)nc3cc(-c4cccc(Cl)c4)nn23)CC1", "Assay Target": "ABCG2 (Homo sapiens, UniProt Q9UNQ0)", "Result Operator": "=", "pIC50": 6.64}

====

Assay Target: ABCB1 (Homo sapiens)
Sequence (P08183 whole entry): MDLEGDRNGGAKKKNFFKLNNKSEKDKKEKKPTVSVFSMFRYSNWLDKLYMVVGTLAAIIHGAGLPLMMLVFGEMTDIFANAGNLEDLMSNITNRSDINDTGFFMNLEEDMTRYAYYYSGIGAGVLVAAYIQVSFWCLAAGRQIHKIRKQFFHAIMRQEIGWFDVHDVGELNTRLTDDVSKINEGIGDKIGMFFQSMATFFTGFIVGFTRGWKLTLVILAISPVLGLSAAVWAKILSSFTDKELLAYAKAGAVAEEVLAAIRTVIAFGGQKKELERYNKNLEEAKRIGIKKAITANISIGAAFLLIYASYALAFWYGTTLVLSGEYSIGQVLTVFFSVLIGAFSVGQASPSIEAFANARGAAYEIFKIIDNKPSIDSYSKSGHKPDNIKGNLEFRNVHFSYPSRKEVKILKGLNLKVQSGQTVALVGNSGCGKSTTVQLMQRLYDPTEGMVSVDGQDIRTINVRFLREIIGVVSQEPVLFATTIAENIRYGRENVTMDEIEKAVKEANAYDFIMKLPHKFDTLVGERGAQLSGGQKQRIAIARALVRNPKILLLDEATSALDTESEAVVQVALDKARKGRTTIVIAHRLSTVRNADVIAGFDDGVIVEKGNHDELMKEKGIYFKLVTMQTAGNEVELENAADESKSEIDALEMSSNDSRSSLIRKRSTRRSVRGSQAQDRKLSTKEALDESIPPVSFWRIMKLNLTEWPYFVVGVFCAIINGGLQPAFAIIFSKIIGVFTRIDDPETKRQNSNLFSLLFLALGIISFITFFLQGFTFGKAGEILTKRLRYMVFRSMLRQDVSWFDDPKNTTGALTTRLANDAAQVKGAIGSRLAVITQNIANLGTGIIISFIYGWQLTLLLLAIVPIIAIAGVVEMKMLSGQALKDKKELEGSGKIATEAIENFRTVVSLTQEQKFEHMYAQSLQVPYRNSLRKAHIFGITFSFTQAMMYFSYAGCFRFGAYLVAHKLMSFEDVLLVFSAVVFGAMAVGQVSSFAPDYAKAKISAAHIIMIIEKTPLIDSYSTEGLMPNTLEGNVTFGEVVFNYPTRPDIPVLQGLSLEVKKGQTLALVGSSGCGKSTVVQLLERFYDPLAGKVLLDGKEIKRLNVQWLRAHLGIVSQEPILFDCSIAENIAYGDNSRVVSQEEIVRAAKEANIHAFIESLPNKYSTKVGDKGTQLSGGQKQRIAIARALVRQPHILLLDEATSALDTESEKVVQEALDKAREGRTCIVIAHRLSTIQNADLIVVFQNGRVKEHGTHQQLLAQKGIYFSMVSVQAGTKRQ
Measurement Protocol: JC-1 efflux inhibition dose response, flow cytometry, Jurkat-DNR cells
Condition Notes: IC50 ABCB1 (efflux inhibition of JC-1 substrate), Jurkat-DNR cells over-expressing ABCB1; averages of two to four replicates

{"Structure Notation": "O=C(OCc1ccccc1)N1CCN(c2cc(-c3ccco3)nc3cc(-c4ccccc4)nn23)CC1", "Result Operator": ">", "IC50, µM": 50}
{"Structure Notation": "CC(=O)N1CCN(c2cc(-c3ccco3)nc3cc(-c4ccccc4)nn23)CC1", "Result Operator": "=", "IC50, µM": 3.64}
{"Structure Notation": "O=C(c1ccoc1)N1CCN(c2cc(-c3ccccc3F)nc3cc(-c4cccc(Cl)c4)nn23)CC1", "Result Operator": "=", "IC50, µM": 4.69}
{"Structure Notation": "O=C(c1ccoc1)N1CCN(c2cc(-c3ccoc3)nc3cc(-c4ccccc4)nn23)CC1", "Result Operator": "=", "IC50, µM": 1.6}
{"Structure Notation": "O=C(c1ccoc1)N1CCN(c2cc(-c3ccco3)nc3cc(-c4ccc(Cl)cc4)nn23)CC1", "Result Operator": "=", "IC50, µM": 41.5}

Reference source for all entries: patent US9056111B1
